- EXPERIMENT: Pharmacokinetic evaluation in beagles after intravenous injection and oral administration
- Format: in vivo
- CONDITION SUMMARY: both sexes, beagle, dog, plasma, oral, p.o, 0.1 mg/kg
READOUT KIND: half-life (h)
Value expressed in h; do not type the unit.

Lab book: half-life of CCOc1ccc(Cc2cc([C@]34OC[C@]([C@@H](C)O)(O3)[C@@H](O)[C@H](O)[C@H]4O)ccc2Cl)cc1 [Complex (IA)] noted as 8.88

###

- EXPERIMENT: Pharmacokinetic evaluation in beagles after intravenous injection and oral administration
- Type: in vivo
- CONDITION SUMMARY: both sexes, beagle, dog, plasma, iv, i.v, 0.1 mg/kg
READOUT KIND: half-life (h)
Value expressed in h; do not type the unit.

Lab book: half-life of CCOc1ccc(Cc2cc([C@]34OC[C@]([C@@H](C)O)(O3)[C@@H](O)[C@H](O)[C@H]4O)ccc2Cl)cc1 noted as 8.97

###

- EXPERIMENT: Pharmacokinetic evaluation in beagles after intravenous injection and oral administration
- Format: in vivo
- CONDITION SUMMARY: both sexes, beagle, dog, plasma, po, p.o, 0.1 mg/kg
READOUT KIND: AUC(0-t) (ng·h/mL)
Value expressed in ng·h/mL; do not type the unit.

Lab book: AUC(0-t) of CCOc1ccc(Cc2cc([C@]34OC[C@]([C@@H](C)O)(O3)[C@@H](O)[C@H](O)[C@H]4O)ccc2Cl)cc1 [Complex (IA)] noted as 602

###

- EXPERIMENT: Pharmacokinetic evaluation in beagles after intravenous injection and oral administration
- Format: in vivo
- CONDITION SUMMARY: both sexes, beagle, dog, plasma, po, 0.1 mg/kg, p.o, read-out: F (oral bioavailability)
READOUT KIND: bioavailability (%)
Value expressed in %; do not type the unit.

Lab book: bioavailability of CCOc1ccc(Cc2cc([C@]34OC[C@]([C@@H](C)O)(O3)[C@@H](O)[C@H](O)[C@H]4O)ccc2Cl)cc1 noted as 97.5

###

- EXPERIMENT: Pharmacokinetic evaluation in beagles after intravenous injection and oral administration
- Assay type: in vivo
- CONDITION SUMMARY: both sexes, beagle, dog, plasma, iv, i.v, 0.1 mg/kg
READOUT KIND: Cmax (ng/mL)
Value expressed in ng/mL; do not type the unit.

Lab book: Cmax of CCOc1ccc(Cc2cc([C@]34OC[C@]([C@@H](C)O)(O3)[C@@H](O)[C@H](O)[C@H]4O)ccc2Cl)cc1 [Complex (IA)] noted as 148
